Recorded values, source ChEMBL document CHEMBL1201862.

Test system: RXF 393
Test: NCI tumour cell line growth inhibition, 48 h
Calls of active or inactive are those of the source. No stated cut-off is given here; in the data, active = GI50 up to about 1.1 µM and inactive = higher.
Reported GI50 values for a set of molecules
Measured endpoint: GI50

1) Cn1ncc2c(NCCc3ccccc3)nc(Cl)nc21 :: 17.1 µM (inactive)
2) N#C/C(=C\c1ccc(Br)cc1)c1nc(-c2cc3ccccc3oc2=O)cs1 :: 19.2 µM (inactive)
3) CC(CCC(=O)O)(c1cc(Br)c(O)c(Br)c1)c1cc(Br)c(O)c(Br)c1 :: 54.8 µM (inactive)
4) C(=C/c1nnnn1-c1ccccc1)/Nc1ccccc1 :: 53 µM (inactive)
5) CC(=O)Oc1ccc2ccc(=O)oc2c1OC(C)=O :: 22.7 µM (inactive)
6) CCOC(=O)/C(=C\NC(C)(C)C)c1nc2ccccc2[nH]1 :: 23.5 µM (inactive)
7) O=c1cccccc1NCCCNc1cccccc1=O :: > 100 µM (inactive)
8) COc1ccc(/C=[N+](\[O-])[C@H](COCc2ccccc2)c2ccccc2)cc1 :: 98.9 µM (inactive)
9) COc1ccc(C2SC(=N)Nc3c2c(C)nn3C(=O)c2ccncc2)cc1 (stereo not drawn) :: > 100 µM (inactive)
10) CC(C)OC(=O)c1ccc(CCC2=CC(=O)C=CC2=O)cc1 :: 11.8 µM (inactive)
11) C=C(Cl)C(Cl)(CBr)CCC(Cl)C(C)(C)Cl (stereo not drawn) :: 1.35 µM (inactive)
12) O=C(c1ccccc1)N1CCC(Nc2nccs2)O1 (stereo not drawn) :: > 10 µM (inactive)
13) N=C(N)NCCCC(NC(=O)OCCCCn1ccc(N)nc1=O)C(=O)O (stereo not drawn) :: > 100 µM (inactive)
14) c1ccc(/N=C(\N2CCOCC2)N(CCN2CCOCC2)c2ccccc2)cc1 :: > 100 µM (inactive)
15) Cc1ccc(NC(=O)CC2Sc3ccccc3NC2=O)c(C)c1 (stereo not drawn) :: 14 µM (inactive)
16) O=[N+]([O-])c1cccc2nc3ccccc3c(NCCC[N+]3([O-])CCCCC3)c12 :: 0.647 µM (active)
17) CCOC(=O)C1(Cc2ccccc2)CCN(C(=O)c2ccccc2)C2C1C2(Cl)Cl (stereo not drawn) :: 16 µM (inactive)
18) CC(C)(C)[Si](C)(C)OCC1CCC(n2cnc3c(N)ncnc32)O1 (stereo not drawn) :: 84.1 µM (inactive)
19) OC1CCC(C2C3CCCCC3C3CCCCC3C2C2CCC(O)CC2)CC1 (stereo not drawn) :: 2.9 µM (inactive)
20) Fc1ccc(C(OCCN2CCC3CCC(C2)N3C/C=C/c2cccnc2)c2ccc(F)cc2)cc1 (stereo not drawn) :: 5.28 µM (inactive)
21) COc1ccc2c(c1)CN1C(=N2)CSC1c1ccccc1Cl (stereo not drawn) :: 14.4 µM (inactive)
22) CC1(C)CC(=O)c2c(nc3ccc4ccccc4c3c2-c2ccc(NC(=O)CCC(=O)Nc3ccc(-c4c5c(nc6ccc7ccccc7c46)CC(C)(C)CC5=O)cc3)cc2)C1 :: > 100 µM (inactive)
23) COc1ccc2c(c1)-c1c(c3ccccc3n1CCN1CCCCC1)CC2 :: 1.57 µM (inactive)

---

Test system: MDA-MB-231
Assay: NCI tumour cell line growth inhibition, 48 h
Activity calls are given as the source filed them. Cut-off read from the data, not from the text of the source: active = GI50 up to about 1.1 µM and inactive = higher.
Possible outcomes: active, inactive

1) CC(CCC(=O)O)(c1cc(Br)c(O)c(Br)c1)c1cc(Br)c(O)c(Br)c1 :: inactive
2) O=C1CSC2=NC3=C(CSC/C3=C\c3ccccc3)C(c3ccccc3)N12 (stereo not given) :: inactive
3) CC(C)=CCc1c(O)c(CC=C(C)C)c2oc3c(c(=O)c2c1O)C(C=C(C)C)Oc1cc(O)ccc1-3 (stereo not given) :: inactive
4) CC1C(c2ccccc2)OP(=O)(OC(C#N)c2ccccc2)N1C (stereo not given) :: inactive
5) CC(=O)OC1COC(n2nc(/C=C/c3ccc(Cl)cc3)c(=O)n(/N=C/c3ccccc3)c2=S)C(OC(C)=O)C1OC(C)=O (stereo not given) :: inactive
6) CCCN(CCCCN1C(=O)c2ccccc2C1=O)CC1COc2ccccc2O1 (stereo not given) :: inactive
7) c1ccc([P+](c2ccccc2)(c2ccccc2)C2c3ccccc3-c3ccccc32)cc1 :: inactive
8) CCCCn1c2c(n(CCCC)c1=S)-c1c(n(CCCC)c(=S)n1CCCC)SSSS2 :: active
9) Oc1cccc2cc(Br)cnc12 :: inactive
10) COc1cc(OC)c2[nH]c3c(O)c(-c4c(C)cc5c([nH]c6c(OC)cc(OC)cc65)c4O)c(C)cc3c2c1 :: inactive
11) O=C1N2CCN=C2c2ccccc2C1(O)c1ccccc1 (stereo not given) :: inactive
12) CC(C)(C)OC(=O)NCCCCCCC(=O)Cc1ccccc1 :: inactive
13) N#CC1(C#N)[C@@H]2CCC=C(Sc3ccccc3)[C@@H]21 :: inactive
14) CC1=CC(=O)/C(=C/NC(=S)Nc2ccc(S(N)(=O)=O)cc2)C(=O)O1 :: inactive
15) Cc1ccc(O)c(Cc2nc3ccccc3nc2-c2cccc(Cl)c2)c1 :: inactive
16) O=C(Nc1ccccc1)OCCN=C1c2ccccc2CCc2ccccc21 :: inactive
17) CCOC(=O)C(CC#Cc1ccc(C#CCC(NC(C)=O)C(=O)OCC)cc1)NC(C)=O (stereo not given) :: inactive
18) CC(=O)/N=C1/N(/C=C2\C(=O)Oc3ccccc3C2=O)C(=O)/C(=C/c2ccc(Cl)cc2Cl)N1C :: inactive
19) CC(C)[Si](OC1=C(c2ccccc2)C(NC(=O)/C=C/c2ccc([N+](=O)[O-])cc2)CCC1)(C(C)C)C(C)C (stereo not given) :: inactive
20) c1ccc(CCCN2C3CCC2CN(CCOC(c2ccccc2)c2ccccc2)C3)cc1 :: inactive
